assaySummary: in vivo
measurementConditions: rat, in vivo, inhaled or intranasal, 4 mg/kg
outcomeMeasure: half-life (days)
One number for each entry, in days.

Requested read-out: half-life. Entry: N=C(N)c1ccc(OCCCCCOc2ccc(C(=N)N)cc2)cc1 [pentamidine, Pentamidine isethionate]
36

----------
assaySummary: in vivo
measurementConditions: rat, in vivo, inhaled or intranasal, 0.4 mg/kg/day, levels in the lung
outcomeMeasure: concentration at 24 h (ng/g)
Give bare numbers, in ng/g.

Requested read-out: concentration at 24 h. Entry: N=C(N)c1ccc(OCCCCCOc2ccc(C(=N)N)cc2)cc1 [pentamidine, Pentamidine isethionate]
60500

----------
assaySummary: in vivo
measurementConditions: lung, inhaled or intranasal, 3.2 mg/kg/day; rat, aerosol 3.2 mg/kg daily × 4, 24 h after last dose
outcomeMeasure: concentration at 24 h (ng/g)
Give bare numbers, in ng/g.

Requested read-out: concentration at 24 h. Entry: N=C(N)c1ccc(OCCCCCOc2ccc(C(=N)N)cc2)cc1 [pentamidine, Pentamidine isethionate]
291000
